- assayedTarget: T1, PDZD4, Q76G19
- T1 sequence (Q76G19 125-224, limits assumed, looked up): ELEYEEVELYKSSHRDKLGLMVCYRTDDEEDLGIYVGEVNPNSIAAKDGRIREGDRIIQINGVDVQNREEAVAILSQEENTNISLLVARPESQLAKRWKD
- test: holdup assay
- Set-up: key: below the threshold = too weak to quantify, mostly under pKd 3.1 to 4
- recordedConditions: plain residues with an end cap or a label only (N-terminal biotin on a linker: ttds)
assayEndpoint: pKd
Form: value (number only, do not type unit).

STLTIFETAL [ABCC4, O15439] ... 4.08

Attention now turns to another entry.
Which pKd reading was recorded for the binder PKTPPTDTSV [KIR3DL3, Q8N743] ?
4.14

Data provenance: paper PMC9482650
